Each recorded value in this set is attributed to patent US8530486B2.

Listed here are molecules together with their documented pKi.
- system_tested: human H4 receptor (Homo sapiens, UniProt Q9H3N8)
- Construct: expressed in transfected cells; host or cells: HEK 293T cells, transient transfection with polyethyleneimine
- Sequence (Q9H3N8 whole entry): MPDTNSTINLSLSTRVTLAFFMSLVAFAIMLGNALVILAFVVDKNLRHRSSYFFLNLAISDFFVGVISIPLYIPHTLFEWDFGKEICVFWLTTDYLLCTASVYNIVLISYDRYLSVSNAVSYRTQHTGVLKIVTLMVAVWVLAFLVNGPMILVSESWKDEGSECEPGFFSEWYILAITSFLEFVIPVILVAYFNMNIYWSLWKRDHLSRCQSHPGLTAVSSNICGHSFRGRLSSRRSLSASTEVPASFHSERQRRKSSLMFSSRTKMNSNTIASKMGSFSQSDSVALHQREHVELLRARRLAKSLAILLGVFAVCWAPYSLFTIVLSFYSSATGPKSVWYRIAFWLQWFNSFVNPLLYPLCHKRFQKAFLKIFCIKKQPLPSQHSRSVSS
- assay_name: [3H]Histamine binding assay (radioligand displacement at the human H4 receptor)
- condition_description: [3H]histamine displacement, membranes of HEK 293T cells transfected with human H4R; read-out: Activity Class* (Ki in H4 binding assay)
pKi: −log10 of the molar value.

test_smiles	pKi
CN1CCN(c2nc(NCCS(=O)(=O)Nc3ccc(I)cc3)c3cc(Cl)ccc3n2)CC1	> 6.00
CN1CCN(c2nc(NCCS(=O)(=O)Nc3ccccc3)c3ccc(Cl)c(Cl)c3n2)CC1	> 6.00
CN1CCN(c2nc(NCCS(=O)(=O)Nc3ccccc3)c3cc(Cl)cc(Cl)c3n2)CC1	> 6.00
